This listing pairs compounds with measured Cmax.
# Setup conditions: female, C57BL/6, mouse, in vivo, po

// below: answered compounds
CC(C)COCC(CN(Cc1ccccc1)c1ccccc1)N1CCCC1 (stereo not drawn) [Bepridil] = ~3000 nM
CN[C@H]1CC[C@@H](c2ccc(Cl)c(Cl)c2)c2ccccc21 [Sertraline] = ~1200 nM

input: I'd like to know its Cmax. The compound in question is CN(C)CCOc1ccc(/C(=C(/CCCl)c2ccccc2)c2ccccc2)cc1 [Toremifene]
output: ~4400 nM

Numbers sourced from patent US20240127967A1.
